Assay: acute toxicity test
Type: in vivo, male mice (ddY)
Settings: mouse, in vivo, ip; intraperitoneal administration
Measurement Name: LD50

Reported LD50 ( CC1(C)[C@@H](O)CC[C@]2(C)[C@H]3CC=C4[C@@H]5C[C@@](C)(CO)CC[C@]5(C)CC[C@@]4(C)[C@]3(C)CC[C@@H]12 [I, olean-12-ene-3β, 30-diol] ) = > 4000 mg/kg

---

Experiment: acute toxicity test
Type: in vivo, male mice (ddY)
Conditions: mouse, in vivo; oral administration
Measurement Name: LD50

Looking up CC1(C)[C@@H](O)CC[C@]2(C)[C@H]3CC=C4[C@@H]5C[C@@](C)(CO)CC[C@]5(C)CC[C@@]4(C)[C@]3(C)CC[C@@H]12 , I see its LD50 listed as > 5000 mg/kg
